- Procedure Summary: Quantitative High-Throughput drug screen in 47 multiple myeloma cell lines against the NCATS MIPE library collection: SKMM1_PLB cell viability assay (AID 1919863); note: potency is the fitted concentration of half-maximal effect; nearly all actives have a fitted effect of over 35% in size
- Measurement Conditions: SKMM1 myeloma viability, CellTiter-Glo ATP, 48 h
Results filed as inconclusive are left out. Calls of active or inactive are those of the source. Calls come from the whole dose curve; as a rule, active = well fitted cell-killing curve with a large enough effect; inconclusive = small, poorly fitted or top-dose-only effect, or effect the other way; inactive = no such curve, though single readings can be large or run the other way.
Quick reference: Potency of the listed items.

Guide cases for Potency, answers given:
{"Compound": "C[C@@]12C(=O)OC(=O)[C@@]1(C)C1CCC2O1", "Potency": "7.43 µM (active)"}
{"Compound": "CN(C)c1ccc(C(=O)NCCCCCCC(=O)NO)cc1", "Potency": "1.48 µM (active)"}

With those in mind, consider the next compound.
IN: Reported Potency, compound COc1cccc2c1C(=O)c1c(O)c3c(c(O)c1C2=O)C[C@@](O)(C(=O)CO)C[C@@H]3O[C@H]1C[C@H](N)[C@@H](O)[C@H](C)O1 : ____
OUT: 0.935 µM (active)
